# experimental.target: T1, human PD-L1-his tag protein (human, UniProt Q9NZQ7 19-238)
# T1 construct: also called human PD-L1-His protein; recombinant PD-L1 protein; not shown: his tag
# T1 sequence (Q9NZQ7 19-238 limits assumed): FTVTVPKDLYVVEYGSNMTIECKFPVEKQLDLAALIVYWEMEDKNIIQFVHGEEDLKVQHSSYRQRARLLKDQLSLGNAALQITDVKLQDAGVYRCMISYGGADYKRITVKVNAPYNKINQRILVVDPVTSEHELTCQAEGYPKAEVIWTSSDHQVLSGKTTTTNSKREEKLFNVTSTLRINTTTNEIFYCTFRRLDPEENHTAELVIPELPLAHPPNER
# protocol.summary: SPR (Biacore T200), mAb captured on Protein A chip, PD-L1-his injected
Below, each of the binders is paired with its reported kon value.
Supply the numeric figure in M⁻¹ s⁻¹, leaving out any unit text.

Example results:
- binder: "Hu67F3G7-5 (antibody, V domains shown, humanized) VH: EVQLVQSGAEVKKPGASVKVSCKASGYIFTDFWVSWVRQAPGKGLEWIGEIYPNSGVSRYNEKFKGRVTMTVDKSISTAYMELSRLRSDDTAVYYCTKYFGYTYWFGYWGQGTLVTVSS VL: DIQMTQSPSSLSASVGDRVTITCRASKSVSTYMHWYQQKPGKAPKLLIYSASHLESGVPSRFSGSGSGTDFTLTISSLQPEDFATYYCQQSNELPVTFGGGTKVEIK"
  property.measured: "kon"
  numeric.value: "1.84e+06"
- binder: "Hu89C10H8-11 (antibody, V domains shown, humanized) VH: EVQLVESGGGLVKPGGSLRLSCAASGFTFSNYWMTWIRQAPGKGLEWVASITNTGSSTFYPDSVKGRFTISRDNAKNSLYLQMNSLRAEDTAVYYCTRDTTIAPFDYWGQGTMVTVSS VL: DIQMTQSPSSLSASVGDRVTITCKASQNLNEYLNWYQQKPGKAPKRLIYKTNTLQAGIPSRFSGSGSGIDYTLTISSLQPEDFATYYCSQYNSGNTFGQGTKLEIK"
  property.measured: "kon"
  numeric.value: 564000
- binder: "Hu47C6A3-1 (antibody, V domains shown, humanized) VH: QVQLQESGPGLVKPSETLSLTCTVSGYSITSDYAWNWIRQPPGKGLEWIGYIIYSGSTSYNPSLKSRVTISVDTSKNQFSLKLSSVTAADTAVYYCARSTMIATNWFAYWGQGTLVTVSS VL: DIQMTQSPSSLSASVGDRVTITCKASQDVSLAVAWYQQKPGKAPKLLIYWASTRHTGVPSRFSGSGSGTDFTLTISSLQPEDFATYYCQQHYITPWTFGGGTKVEIK"
  property.measured: "kon"
  numeric.value: "1.24e+06"
- binder: "Hu47C6A3-3 (antibody, V domains shown, humanized) VH: QVQLQESGPGLVKPSETLSLTCTVSGYSITSDYAWNWIRQPPGKGLEWMGYIIYSGSTSYNPSLKSRITISRDTSKNQFSLKLSSVTAADTAVYYCARSTMIATNWFAYWGQGTLVTVSS VL: DIQMTQSPSSLSASVGDRVTITCKASQDVSLAVAWYQQKPGKAPKLLIYWASTRHTGVPSRFSGSGSGTDFTLTISSLQPEDFATYYCQQHYITPWTFGGGTKVEIK"
  property.measured: "kon"
  numeric.value: "2.18e+06"
- binder: "Hu89C10H8-7 (antibody, V domains shown, humanized) VH: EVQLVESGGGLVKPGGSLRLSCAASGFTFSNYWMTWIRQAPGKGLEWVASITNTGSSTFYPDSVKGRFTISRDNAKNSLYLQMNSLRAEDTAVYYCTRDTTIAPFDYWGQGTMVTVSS VL: DIQMTQSPSSLSASVGDRVTITCKASQNLNEYLNWYQQKPGKAPKRLIYKTNTLQAGIPSRFSGSGSGTDYTLTISSLQPEDFATYYCSQYNSGNTFGQGTKLEIK"
  property.measured: "kon"
  numeric.value: 568000

Measured kon, Hu67F3G7-2 (antibody, V domains shown, humanized) VH: EVQLVQSGAEVKKPGASVKVSCKASGYTFTDFWVSWVRQAPGQGLEWMGEIYPNSGVSRYNEKFKGRVTMTVDKSISTAYMELSRLRSDDTAVYYCTKYFGYTYWFGYWGQGTLVTVSS VL: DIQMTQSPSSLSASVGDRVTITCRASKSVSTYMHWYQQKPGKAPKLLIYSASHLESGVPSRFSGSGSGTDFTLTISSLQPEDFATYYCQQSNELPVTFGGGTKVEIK : 1.92e+06

Measured kon, Hu47C6A3-2 (antibody, V domains shown, humanized) VH: QVQLQESGPGLVKPSETLSLTCTVSGYSITSDYAWNWIRQPPGKGLEWIGYIIYSGSTSYNPSLKSRVTISRDTSKNQFSLKLSSVTAADTAVYYCARSTMIATNWFAYWGQGTLVTVSS VL: DIQMTQSPSSLSASVGDRVTITCKASQDVSLAVAWYQQKPGKAPKLLIYWASTRHTGVPSRFSGSGSGTDFTLTISSLQPEDFATYYCQQHYITPWTFGGGTKVEIK : 2.45e+06

Measured kon, Hu67F3G7-3 (antibody, V domains shown, humanized) VH: EVQLVQSGAEVKKPGASVKVSCKASGYIFTDFWVSWVRQAPGQGLEWIGEIYPNSGVSRYNEKFKGRVTMTVDKSISTAYMELSRLRSDDTAVYYCTKYFGYTYWFGYWGQGTLVTVSS VL: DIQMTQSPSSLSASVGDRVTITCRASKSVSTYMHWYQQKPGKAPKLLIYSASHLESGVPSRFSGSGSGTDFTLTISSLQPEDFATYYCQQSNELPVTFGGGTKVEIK : 2.09e+06

Measured kon, Hu67F3G7-22 (antibody, V domains shown, humanized) VH: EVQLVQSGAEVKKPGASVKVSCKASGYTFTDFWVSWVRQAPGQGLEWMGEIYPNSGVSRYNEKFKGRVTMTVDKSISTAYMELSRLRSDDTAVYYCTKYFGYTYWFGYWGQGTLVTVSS VL: DIQMTQSPSSLSASVGDRVTITCRASKSVSTYMHWYQQKPGKQPKLLIYSASHLESGVPSRFSGSGSGTDFTLTISSLQPEDFATYYCQQSNELPVTFGGGTKVEIK : 1.78e+06

Measured kon, Hu67F3G7-7 (antibody, V domains shown, humanized) VH: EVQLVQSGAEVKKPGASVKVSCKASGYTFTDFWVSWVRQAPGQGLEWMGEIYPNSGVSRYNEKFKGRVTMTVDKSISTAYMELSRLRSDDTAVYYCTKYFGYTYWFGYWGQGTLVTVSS VL: DTVLTQSPSSLSASVGDRVTITCRASKSVSTYMHWYQQKPGKAPKLLIYSASHLESGVPSRFSGSGSGTDFTLTISSLQPEDFATYYCQQSNELPVTFGGGTKVEIK : 2.21e+06

Measured kon, Hu89C10H8-12 (antibody, V domains shown, humanized) VH: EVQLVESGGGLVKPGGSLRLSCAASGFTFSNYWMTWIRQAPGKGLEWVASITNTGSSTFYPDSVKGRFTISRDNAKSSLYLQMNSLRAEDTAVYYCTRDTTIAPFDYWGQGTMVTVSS VL: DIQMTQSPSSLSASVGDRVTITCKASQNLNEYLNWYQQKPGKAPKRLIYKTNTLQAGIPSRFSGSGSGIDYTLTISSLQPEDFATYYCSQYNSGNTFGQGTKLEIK : 587000

Just for reference, patent US20230287125A1 is where these values come from.
